experimentalParameters: human gut metagenome, 24 h, 2 µM; further: call rule not given here

[
  {
    "compound": "Cc1cc(C)cc(OCC2CNC(=O)O2)c1 (centres undefined)",
    "Bacterial Biotransformation": "Compound metabolized"
  },
  {
    "compound": "COc1cc2nc(N3CCN(C(=O)C4CCCO4)CC3)nc(N)c2cc1OC (centres undefined)",
    "Bacterial Biotransformation": "Compound metabolized"
  },
  {
    "compound": "Nc1nc(NC2CC2)c2ncn([C@H]3C=C[C@@H](CO)C3)c2n1.Nc1nc(NC2CC2)c2ncn([C@H]3C=C[C@@H](CO)C3)c2n1.O=S(=O)(O)O [ABACAVIR SULFATE]",
    "Bacterial Biotransformation": "Compound metabolized"
  }
]

###

experimentalParameters: human gut metagenome, 24 h, 2 µM

[
  {
    "molecule": "O=C(CCCN1CCC2(CC1)C(=O)NCN2c1ccccc1)c1ccc(F)cc1",
    "Bacterial Biotransformation": "Compound metabolized"
  },
  {
    "molecule": "COc1cc2nc(N3CCN(C(=O)C4CCCO4)CC3)nc(N)c2cc1OC (stereo unspecified)",
    "Bacterial Biotransformation": "Compound metabolized"
  },
  {
    "molecule": "CC(=O)CCCCn1c(=O)c2c(ncn2C)n(C)c1=O",
    "Bacterial Biotransformation": "Compound NOT metabolized"
  },
  {
    "molecule": "COC(=O)[C@H](c1ccccc1Cl)N1CCc2sccc2C1.O=S(=O)(O)O [CLOPIDOGREL BISULFATE]",
    "Bacterial Biotransformation": "Compound metabolized"
  },
  {
    "molecule": "CC(C)(C)NC[C@H](O)COc1nsnc1N1CCOCC1.O=C(O)/C=C\\C(=O)O [TIMOLOL MALEATE]",
    "Bacterial Biotransformation": "Compound NOT metabolized"
  },
  {
    "molecule": "CC12CC3CC(C)(C1)CC(N)(C3)C2 [MEMANTINE]",
    "Bacterial Biotransformation": "Compound NOT metabolized"
  },
  {
    "molecule": "CC(=O)Nc1ccc(OC(C)=O)cc1 [DIACETAMATE]",
    "Bacterial Biotransformation": "Compound metabolized"
  },
  {
    "molecule": "COc1ccc(C(CN(C)C)C2(O)CCCCC2)cc1 (stereo unspecified)",
    "Bacterial Biotransformation": "Compound metabolized"
  },
  {
    "molecule": "Cc1cc2c(s1)Nc1ccccc1N=C2N1CCN(C)CC1",
    "Bacterial Biotransformation": "Compound metabolized"
  },
  {
    "molecule": "C=CC[C@@H]1/C=C(\\C)C[C@H](C)C[C@H](OC)[C@H]2O[C@@](O)(C(=O)C(=O)N3CCCC[C@H]3C(=O)O[C@H](/C(C)=C/[C@@H]3CC[C@@H](O)[C@H](OC)C3)[C@H](C)[C@@H](O)CC1=O)[C@H](C)C[C@@H]2OC.O",
    "Bacterial Biotransformation": "Compound metabolized"
  },
  {
    "molecule": "CC(C)(C)NC(=O)[C@H]1CC[C@H]2[C@@H]3CC[C@H]4NC(=O)C=C[C@]4(C)[C@H]3CC[C@]12C [FINASTERIDE]",
    "Bacterial Biotransformation": "Compound metabolized"
  },
  {
    "molecule": "Cc1cc(C)cc(OCC2CNC(=O)O2)c1 (stereo unspecified)",
    "Bacterial Biotransformation": "Compound NOT metabolized"
  },
  {
    "molecule": "CNCC[C@H](Oc1cccc2ccccc12)c1cccs1",
    "Bacterial Biotransformation": "Compound metabolized"
  },
  {
    "molecule": "CCCN1C[C@H](CSC)C[C@@H]2c3cccc4[nH]cc(c34)C[C@H]21.CS(=O)(=O)O [PERGOLIDE MESYLATE]",
    "Bacterial Biotransformation": "Compound NOT metabolized"
  },
  {
    "molecule": "OCCN(CCO)c1nc(N2CCCCC2)c2nc(N(CCO)CCO)nc(N3CCCCC3)c2n1",
    "Bacterial Biotransformation": "Compound metabolized"
  },
  {
    "molecule": "COc1cc(C(=O)NCc2ccc(OCCN(C)C)cc2)cc(OC)c1OC [TRIMETHOBENZAMIDE]",
    "Bacterial Biotransformation": "Compound NOT metabolized"
  },
  {
    "molecule": "COc1cc(NC(C)CCCN)c2ncccc2c1.O=P(O)(O)O.O=P(O)(O)O (stereo unspecified) [PRIMAQUINE PHOSPHATE]",
    "Bacterial Biotransformation": "Compound metabolized"
  },
  {
    "molecule": "O=C(O)CCC(=O)O.O=C(O[C@H]1CN2CCC1CC2)N1CCc2ccccc2[C@@H]1c1ccccc1 [SOLIFENACIN SUCCINATE]",
    "Bacterial Biotransformation": "Compound NOT metabolized"
  },
  {
    "molecule": "COc1cc2nc(N3CCN(C(=O)C4COc5ccccc5O4)CC3)nc(N)c2cc1OC.CS(=O)(=O)O (stereo unspecified) [DOXAZOSIN MESYLATE]",
    "Bacterial Biotransformation": "Compound NOT metabolized"
  },
  {
    "molecule": "CC(=O)OCC(=O)NCCCOc1cccc(CN2CCCCC2)c1 [ROXATIDINE ACETATE]",
    "Bacterial Biotransformation": "Compound metabolized"
  },
  {
    "molecule": "CC(=O)OCC(=O)[C@@]1(OC(C)=O)[C@@H](C)C[C@H]2[C@@H]3C[C@H](F)C4=CC(=O)C=C[C@]4(C)[C@@]3(F)[C@@H](O)C[C@@]21C [DIFLORASONE DIACETATE]",
    "Bacterial Biotransformation": "Compound metabolized"
  }
]
